Each entry below carries its reported PHD Inhibition (pIC50).
Target: PHD2 enzyme (residues 181-417) (Homo sapiens (Human))
Sequence (Q9GZT9 181-417): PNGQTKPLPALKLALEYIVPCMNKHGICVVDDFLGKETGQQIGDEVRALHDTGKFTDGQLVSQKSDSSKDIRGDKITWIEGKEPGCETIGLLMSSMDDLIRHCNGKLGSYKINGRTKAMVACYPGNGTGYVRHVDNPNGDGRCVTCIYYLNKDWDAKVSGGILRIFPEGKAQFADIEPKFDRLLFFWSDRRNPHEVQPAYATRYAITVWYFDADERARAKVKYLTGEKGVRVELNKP
Test: Inhibition of PHD enzyme (LC/MS peptide hydroxylation assay)
Assay type: biochemical
Details: PHD2 (residues 181-417) 5 nM, 60 min pre-incubation; -log(IC50), IC50 molar
Reply with just the number.

Example entries and their recorded answers appear below.
| molecule | readout_number |
| --- | --- |
| COCCCNC(=O)c1ccc(-n2ncc(-c3ccc(CC#N)cc3)c2O)nc1 | 8.1 |
| Cc1cc(C#N)ccc1-c1cnn(-c2ccc(C(=O)N3CCN(CC4CC4)CC3)cn2)c1O | 8.17 |
| Cc1cc(C#N)ccc1-c1cnn(-c2ccc(C(=O)N(C)C3CC3)cn2)c1O | 7.8 |
| CCOc1cc(-c2cnn(-c3ccc(C(=O)NCCCOC)cn3)c2O)ccn1 | 7.9 |

**Q:** Can you look up the measured PHD Inhibition (pIC50) of Cc1cc(C#N)ccc1-c1cnn(-c2ccc(C(=O)NCC3CCN(C)CC3)cn2)c1O for me?
**A:** 7.9

Just for reference, patent US10407409B2 is where these values come from.
